Test: Cytotoxicity against human U87MG cells by SRB method
Format: functional, U-87MG ATCC
Details: U-87 MG, read-out: ED50 (the source's name)
REPORTED_PROPERTY: EC50

// query Need EC50, item CO[C@@H]1[C@@H](O)[C@H](O[C@@H]2[C@@H](O)[C@H](O[C@@H]3CO[C@@H](O[C@H]4[C@H](O[C@H]5CC[C@]6(C)[C@@H]7CC[C@]89C(=O)O[C@@](C)(/C=C\C=C(C)C)[C@@]8(O)[C@@H](OC(C)=O)C[C@@]9(C)C7=CC[C@H]6C5(C)C)OC[C@@H](OS(=O)(=O)[O-])[C@@H]4O)[C@H](O)[C@H]3O)OC[C@H]2O)O[C@H](CO)[C@H]1O.[Na+] [LNTERCEDENSIDE E]
// result 2.1 µg/mL
